Data provenance is PubChem BioAssay AID743319.

Target desc: Endoplasmic reticulum aminopeptidase 2 (Homo sapiens) (UniProt Q6P179)
Sequence (Q6P179 whole entry, looked up): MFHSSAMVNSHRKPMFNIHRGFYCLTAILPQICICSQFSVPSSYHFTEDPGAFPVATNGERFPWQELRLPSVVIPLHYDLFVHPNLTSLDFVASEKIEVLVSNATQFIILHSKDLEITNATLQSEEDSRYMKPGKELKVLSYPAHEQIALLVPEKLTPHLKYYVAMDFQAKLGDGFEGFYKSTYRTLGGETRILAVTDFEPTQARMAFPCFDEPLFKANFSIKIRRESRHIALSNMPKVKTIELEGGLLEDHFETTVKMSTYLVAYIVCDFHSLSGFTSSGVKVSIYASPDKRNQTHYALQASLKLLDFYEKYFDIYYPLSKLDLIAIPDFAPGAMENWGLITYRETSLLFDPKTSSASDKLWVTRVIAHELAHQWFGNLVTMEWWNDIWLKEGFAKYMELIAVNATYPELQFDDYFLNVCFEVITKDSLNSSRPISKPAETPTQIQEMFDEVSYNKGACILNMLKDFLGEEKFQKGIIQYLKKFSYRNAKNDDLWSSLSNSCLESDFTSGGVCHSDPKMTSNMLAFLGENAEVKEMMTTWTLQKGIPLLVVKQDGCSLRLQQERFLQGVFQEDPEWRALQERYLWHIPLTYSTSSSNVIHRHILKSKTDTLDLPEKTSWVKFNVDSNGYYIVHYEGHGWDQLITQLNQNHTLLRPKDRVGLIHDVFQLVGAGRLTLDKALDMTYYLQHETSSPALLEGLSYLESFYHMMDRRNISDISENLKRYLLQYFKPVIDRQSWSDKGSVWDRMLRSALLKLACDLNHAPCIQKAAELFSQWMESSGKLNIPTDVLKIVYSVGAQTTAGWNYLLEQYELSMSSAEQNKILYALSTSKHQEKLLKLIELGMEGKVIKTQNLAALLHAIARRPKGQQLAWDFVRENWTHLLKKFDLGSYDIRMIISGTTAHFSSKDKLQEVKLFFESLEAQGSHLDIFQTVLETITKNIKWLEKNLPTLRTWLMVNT
Protocol description: ERAP2 activation by compounds, dose response, selectivity assay for selective ERAP1 modulator project, biochemical, fluorescence plate reader, cherry-picked samples (AID 743319)
Condition parameters: recombinant ERAP2, Arg-AMC cleavage fluorescence, 1 h
Calls of active or inactive are those of the source.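 The calls were made as follows: active = fitted curve reaches 200% activation at or below the highest valid dose tested for that compound; inconclusive = flat fit between 30 and 70% activation, or unreliable fit; inactive = the rest.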
Bench note: report the call from class 1 for active, class 0 for inactive

Examples with answers:
INSERT INTO measurements (smiles_input, target_desc, class_label) VALUES
  ('Cc1c(-c2ccccc2)c(=O)oc2cc(O)ccc12', 'Endoplasmic reticulum aminopeptidase 2 (Homo sapiens) (UniProt Q6P179)', 'class 1'),
  ('Cc1ccc(-c2cc(C(=O)N3CCCC3)c3ccccc3n2)s1', 'Endoplasmic reticulum aminopeptidase 2 (Homo sapiens) (UniProt Q6P179)', 'class 0'),
  ('COc1cc2ccc(=O)oc2cc1O', 'Endoplasmic reticulum aminopeptidase 2 (Homo sapiens) (UniProt Q6P179)', 'class 1'),
  ('Cc1c(O)ccc2c(CN3CCN(Cc4ccccc4)CC3)cc(=O)oc12', 'Endoplasmic reticulum aminopeptidase 2 (Homo sapiens) (UniProt Q6P179)', 'class 1');

# outcome recorded in this test, key = CCCCc1cc(=O)oc2cc(O)ccc12 class 1

What is the recorded call for this compound in the test? COc1cc2cc(C(=O)N3CCN(Cc4ccc5c(c4)OCO5)CC3)c(=O)oc2cc1OC class 0

* * *

Target desc: Endoplasmic reticulum aminopeptidase 2 (Homo sapiens) (UniProt Q6P179)
Protocol description: ERAP2 activation by compounds, dose response, selectivity assay for selective ERAP1 modulator project, biochemical, fluorescence plate reader, cherry-picked samples (AID 743319)
Condition parameters: recombinant ERAP2, Arg-AMC cleavage fluorescence, 1 h; at 11 µM (top of the series)
Task for the reader: assign each of the following molecules its reported activation.
Answers are plain numbers, in %.

Hey, quick one: what's activation for each of these?
1. C[C@@H]1CCCCO[C@@H](CN(C)Cc2ccc(C(=O)O)cc2)[C@H](C)CN([C@@H](C)CO)C(=O)c2cc(NS(=O)(=O)c3ccc(Cl)cc3)ccc2O1
2. Cc1ccc(S(=O)(=O)Nc2ccc3c(c2)C(=O)N([C@@H](C)CO)C[C@H](C)[C@H](CN(C)C)OCCCC[C@@H](C)O3)cc1

[24.2, 14.1]

* * *

Answer each item with its documented activation.
Target desc: Endoplasmic reticulum aminopeptidase 2 (Homo sapiens) (UniProt Q6P179)
Protocol description: ERAP2 activation by compounds, dose response, selectivity assay for selective ERAP1 modulator project, biochemical, fluorescence plate reader, cherry-picked samples (AID 743319)
Condition parameters: recombinant ERAP2, Arg-AMC cleavage fluorescence, 1 h; at 11 µM (top of the series)
Answers are plain numbers, in %.

INSERT INTO measurements (smiles_input, target_desc, reading) VALUES
  ('COc1ccc(NC(=O)Nc2cccc3c2O[C@H](CN(C)Cc2ccc(C(=O)O)cc2)[C@H](C)CN([C@H](C)CO)C3=O)cc1', 'Endoplasmic reticulum aminopeptidase 2 (Homo sapiens) (UniProt Q6P179)', 15.1);

List activation for every entry below, keeping the order given.
1. Cc1noc(C)c1NC(=O)N(C)C[C@@H]1Oc2c(NC(=O)Nc3ccc(F)cc3)cccc2C(=O)N([C@H](C)CO)C[C@@H]1C
2. Cc1ccccc1-c1ccc2c(c1)O[C@@H](CN(C)Cc1ccc(C(=O)O)cc1)[C@@H](C)CN([C@@H](C)CO)S2(=O)=O
3. COc1ccc(CN(C)C[C@H]2OCCCC[C@@H](C)Oc3ccc(NS(=O)(=O)c4cccs4)cc3C(=O)N([C@@H](C)CO)C[C@@H]2C)cc1
4. CCCN(C)C[C@@H]1OCCCC[C@@H](C)Oc2ccc(NS(=O)(=O)c3ccccc3)cc2C(=O)N([C@H](C)CO)C[C@@H]1C
5. C[C@H]1CN([C@@H](C)CO)C(=O)c2cccc(NC(=O)Nc3ccc4c(c3)OCO4)c2O[C@@H]1CN(C)CC1CC1
6. CCC(=O)N(C)C[C@H]1Oc2ncc(C#Cc3ccncc3)cc2C(=O)N([C@H](C)CO)C[C@H]1C
7. Cc1noc(C)c1NC(=O)Nc1ccc2c(c1)C(=O)N([C@H](C)CO)C[C@@H](C)[C@@H](CN(C)Cc1ccc(C(F)(F)F)cc1)OCCCC[C@@H](C)O2
8. CCCN(C)C[C@@H]1OCCCC[C@@H](C)Oc2ccc(NS(=O)(=O)c3ccc(F)cc3)cc2C(=O)N([C@H](C)CO)C[C@@H]1C

1. 18.4
2. 0.523
3. 10.1
4. 16
5. 12.8
6. -5.99
7. -2.75
8. 10.6

Need activation for each of these compounds.
1. C[C@@H]1CCCCO[C@H](CN(C)C)[C@H](C)CN([C@H](C)CO)C(=O)c2cc(NS(=O)(=O)c3ccc(Cl)cc3)ccc2O1
2. CCN(CCCl)c1cc(CN(C)C)cc(NC(=O)c2ccc(C(=O)Nc3cc(CN(C)C)cc(N(CC)CCCl)c3)cc2)c1

[16.7, -8.9]
